Values compiled from patent US20240150440A1.

tested on: T1, SARS-CoV-2 Gamma Variant RBD (SARS-CoV-2 Gamma variant)
T1 construct: domain: RBD; coated on ELISA plates
protocol notes: ELISA, RBD coated
reported metric: log10(EC50) (log10 of the value in nM)
Kindly note that the scale is log10 and the underlying EC50 is in nM.

Problem: Can you share its log10(EC50)? I mean this binder: PP1094 MBP-5HVZ-PAPA-RN-1-H6 (VHH) VHH: QVQLVESGGGLVQPGGSLRLSCAASGYIFEGGPTAWFRQAPGKGREFVAAITTSGETSYAYSVKGRFTISRDNAKNTVYLQMNSLKPEDTAVYYCNATDRDETGYDYWGQGTQVTVSS
Solution: 2.20

Problem: What do you get for PP1115 MBP-5HVZ-PAPA-RN-31-H6 (VHH, Form: Dimer) VHH: QVQLVESGGGLVQPGGSLRLSCAASGSTGSDYAMHWFRQAPGKDREWVAGISSYGSDSYGDSVKGRFTISRDNAKNTVYLQMNSLKPEDTAVYYCAALQASAGAGYYYDYWGQGTQVTVSS ?
Solution: 2.21

Problem: Another binder to look at: PP1104 MBP-5HVZ-PAPA-RN-19-H6 (VHH, Form: Dimer) VHH: QVQLVESGGGLVQPGGSLRLSCAASGIDDSIGAMHWFRQAPGKGREFVAALSGTGTTSYADSVKGRFTISRDNAKNTVYLQMNSLKPEDTAVYYCAAAFPAGGDYWGQGTQVTVSS
Solution: 1.47

Problem: # repeat for PP933 MBP-5HVZ-R5e-C1-H6 (VHH, Form: Dimer) VHH: QVQLVESGGGLVQPGGSLRLSCAASGSIPYVQAMSWFRQAPGKGREGVASIGWGGGTYYADSVKGRFTISRDNAKNTVYLQMNSLKPEDTAVYYCAAKFRENFSFYDYWGQGTQVTVSS
Solution: 0.99

Problem: Same question, PP908 MBP-5HVZ-S2a-C4-H6 (VHH, Form: Dimer) VHH: QVQLVESGGGLVQPGGSLRLSCAASGFSESINATAWFRQAPGKQREGVAGLDGGGSDYYSDSVKGRFTISRDNAKNTVYLQMNSLKPEDTAVYYCAAQLTSSFRGYDFTPSNYDYWGQGTQVTVSS this time
Solution: 0.57

Problem: Same thing, different binder: PP904 MBP-5HVZ-R5b-C5-H6 (VHH, Form: Dimer) VHH: QVQLVESGGGLVQPGGSLRLSCAASGSPFKTQTVHWFRQAPGKGREWVASITSGSGTQYMDSVKGRFTISRDNAKNTVYLQMNSLKPEDTAVYYCAAANDGYGVDWGQGTQVTVSS
Solution: 1.54

Problem: Then what about the binder PP788 (VHH, not shown: large carriers; small tags and cut ends) VHH: QVQLVESGGGLVQPGGSLRLSCAASGSIESINAIHWFRQAPGKAREEVAAITENDVDYYADSVKGRFTISRDNAKNTVYLQMNSLKPEDTAVYYCASLSSGYQYVGFRYWGQGTQVTVSS ?
Solution: 1.23

Problem: What about this binder? PP900 MBP-5HVZ-R5a-F2-H6 (VHH, Form: Dimer) VHH: QVQLVESGGGLVQPGGSLRLSCAASGSISSIEAMSWFRQAPGKQREGVATMASGGDTSYADSVKGRFTISRDNAKNTVYLQMNSLKPEDTAVYYCAAQTYRPDTWGRYTFWGQGTQVTVSS
Solution: 2.53

Problem: Entry to check: PP1099 MBP-5HVZ-PAPA-RN-12-H6 (VHH, Form: Dimer) VHH: QVQLVESGGGLVQPGGSLRLSCAASGSSFEGNAVHWFRQAPGKNREFVATITTSTSYYYADSVKGRFTISRDNAKNTVYLQMNSLKPEDTAVYYCAARLKDRGPQSEYDYWGQGTQVTVSS
Solution: 2.20

Problem: Can you handle PP1111 MBP-5HVZ-PAPA-RN-27-H6 (VHH, Form: Dimer) VHH: QVQLVESGGGLVQPGGSLRLSCAASGPQFSSNAVSWFRQAPGKEREWVAGITSGGSTDYADSVKGRFTISRDNAKNTVYLQMNSLKPEDTAVYYCTAPSVSDADRRTRDYWGQGTQVTVSS next?
Solution: 0.20

Problem: What do you get for PP1106 MBP-5HVZ-PAPA-RN-21-H6 (VHH, Form: Dimer) VHH: QVQLVESGGGLVQPGGSLRLSCAASGLQTSDNAMHWFRQAPGKNRELVAGLTSGTSRNYGDSVKGRFTISRDNAKNTVYLQMNSLKPEDTAVYYCAAFPDVGDASSIGFVYWGQGTQVTVSS ?
Solution: 0.89

Problem: What do you get for PP906 MBP-5HVZ-S1b-E7-H6 (VHH, Form: Dimer) VHH: QVQLVESGGGLVQPGGSLRLSCAASGGEFSDNGLHWFRQAPGKQREFVATASSDGSTQYRDSVKGRFTISRDNAKNTVYLQMNSLKPEDTAVYYCTALLMSSAGEYDVWGQGTQVTVSS ?
Solution: 2.58

Problem: Next binder: PP914 MBP-5HVZ-S3a-H1-H6 (VHH, Form: Dimer) VHH: QVQLVESGGGLVQPGGSLRLSCAASGGIYSPYSMHWFRQAPGKAREWVAGIVGGGGTTYSDSVKGRFTISRDNAKNTVYLQMNSLKPEDTAVYYCNANYQEYDEYDYWGQGTQVTVSS
Solution: 1.02

Problem: Can you handle PP935 MBP-5HVZ-S3b-E11-H6 (VHH, Form: Dimer) VHH: QVQLVESGGGLVQPGGSLRLSCAASGDIYSQSAMAWYRQAPGKEREFVAAITTTGSRSYKDSVKGRFTISRDNAKNTVYLQMNSLKPEDTAVYYCAAFAVRSSSVSDAYDYWGQGTQVTVSS next?
Solution: 2.22

Problem: Similarly, PP909 MBP-5HVZ-S2b-A7-H6 (VHH, Form: Dimer) VHH: QVQLVESGGGLVQPGGSLRLSCAASGSSDSWNALHWFRQAPGKEREFVAGISSAGSGYYADSVKGRFTISRDNAKNTVYLQMNSLKPEDTAVYYCNGYEHTTGYDYWGQGTQVTVSS ?
Solution: 0.73
